target_or_system: Rap guanine nucleotide exchange factor 3 (Homo sapiens) (UniProt O95398)
Sequence (O95398 whole entry, looked up): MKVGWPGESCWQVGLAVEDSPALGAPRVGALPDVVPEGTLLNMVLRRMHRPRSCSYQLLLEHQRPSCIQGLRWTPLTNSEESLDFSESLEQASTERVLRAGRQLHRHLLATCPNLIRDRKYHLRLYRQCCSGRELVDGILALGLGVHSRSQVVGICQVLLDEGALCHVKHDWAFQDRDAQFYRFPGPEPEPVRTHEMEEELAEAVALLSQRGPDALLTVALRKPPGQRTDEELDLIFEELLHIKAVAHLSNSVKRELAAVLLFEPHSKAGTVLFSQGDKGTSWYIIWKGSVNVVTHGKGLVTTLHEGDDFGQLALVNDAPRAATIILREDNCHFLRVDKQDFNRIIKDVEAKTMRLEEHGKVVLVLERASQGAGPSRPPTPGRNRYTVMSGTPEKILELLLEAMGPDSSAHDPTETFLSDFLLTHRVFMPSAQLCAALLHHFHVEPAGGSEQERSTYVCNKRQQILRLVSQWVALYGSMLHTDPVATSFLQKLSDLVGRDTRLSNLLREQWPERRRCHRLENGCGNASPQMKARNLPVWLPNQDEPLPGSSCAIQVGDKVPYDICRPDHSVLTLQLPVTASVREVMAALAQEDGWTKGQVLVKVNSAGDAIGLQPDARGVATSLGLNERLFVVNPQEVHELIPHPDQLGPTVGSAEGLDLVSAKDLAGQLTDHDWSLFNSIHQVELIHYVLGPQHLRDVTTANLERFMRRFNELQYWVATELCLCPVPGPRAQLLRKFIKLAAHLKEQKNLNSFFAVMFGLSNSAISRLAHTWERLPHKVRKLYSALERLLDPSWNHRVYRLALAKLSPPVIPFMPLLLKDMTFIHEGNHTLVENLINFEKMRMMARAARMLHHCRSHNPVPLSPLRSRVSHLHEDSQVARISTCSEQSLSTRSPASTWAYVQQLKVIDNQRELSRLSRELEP
experiment_description: Confirmatory qHTS for agonist of cAMP-regulated guanine nucleotide exchange factor 3 (EPAC1) (AID 1645881); also: nearly all actives have a fitted effect of over 75% in size; also: potency is read from the fitted curve at half-maximal effect;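 as to activation: EPAC1 catalysed release of BODIPY-GDP from Rap1B seen as fluorescence loss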
test_context: EPAC1 Rap1B BODIPY-GDP exchange fluorescence; series mostly up to 154 µM
Records with an inconclusive call do not appear. Activity calls are given as the source filed them. Calls follow the shape of the dose curve; as a rule, active = well fitted activation curve with a large enough effect; inconclusive = small, poorly fitted or top-dose-only effect; inactive = no such curve, though single readings can be large or run the other way.
readout: Potency

compound | Potency
COCOCCn1cc(CN2CCS(=O)(=O)N(Cc3ccc(-c4ccc(C)cc4)cc3)C(CC(C)C)C2=O)nn1 (stereo not given) | inactive
COc1ccccc1/C=C/C=C1\Oc2c(ccc(O)c2CN(C)C)C1=O | 89.1 µM (active)
COc1ccccc1NC(=O)C(C)OC(=O)COc1cccc2c1OC(C)(C)C2 (stereo not given) | inactive
c1ccc(OCCCn2ccnc2)cc1 | inactive
Cc1ccc2nccc(/C=C/c3ccc(N(C)C)cc3)c2c1 | inactive
CCOC(=O)c1c(C)[nH]c(CCC(=O)NCc2cccc(OC)c2)c1C | inactive
CNc1ccc(Br)cc(C(=O)/C=C/c2ccc(Cl)cc2Cl)c1=O | inactive
CCn1c(=O)c2sccc2n2c(CCCC(=O)N3CCN(c4cc(C)ccc4C)CC3)nnc12 | inactive
COC(=O)c1c(SC)nc2ccccc2c1OCc1ccccc1C | inactive
O=C(N/N=C/c1c(O)n(-c2ccccc2Cl)c(=O)c2ccccc12)c1cccnc1 | inactive

### Prompt Find the recorded Potency belonging to `O=C(C[N+]12CN3CN(CN(C3)C1)C2)c1ccc(I)cc1` and report it.
### Response inactive

### Prompt Repeat with `COc1cc(NC(=S)NCCC(c2ccccc2)c2ccccc2)cc(OC)c1`
### Response inactive

### Prompt Item: COc1ccc(-n2c(SCC(=O)Nc3nccs3)nc3c(c2=O)SC(C)C3)cc1 (stereo not given)
### Response inactive

### Prompt Item: CC(OC(=O)Cc1c[nH]c2ccccc12)C(=O)Nc1ccccc1F (stereo not given)
### Response inactive

### Prompt Can you check `CN1C(=O)/C(=C\c2ccc(N(C)C)cc2)OC1=S` next?
### Response inactive

### Prompt How about `COc1ccccc1N1CCN(c2ncnc3onc(-c4ccc(F)cc4)c23)CC1` ?
### Response inactive

### Prompt Same question for `Cc1ccc(C(=O)Nc2sc(C)c(C)c2C(=O)c2ccccc2)cc1` please.
### Response inactive

### Prompt Please answer likewise for `Cc1ccc(-n2nc(C(=O)N(C)c3ccc(C)c(C)c3)c3c4ccccc4n(C)c3c2=O)cc1`
### Response inactive

### Prompt Quick one: `CC(C)c1ccc(NS(=O)(=O)c2cn(C)c(=O)n(C)c2=O)cc1`
### Response inactive

### Prompt Can you handle `COC(=O)CSc1nc2sc3c(c2c(=O)n1-c1ccc(OC)cc1)CCN(C)C3` next?
### Response inactive

Origin of measurements: PubChem BioAssay (NCATS)
